Ref: PubChem BioAssay (NCI)

Test system: SR leukemia
Experiment: NCI tumour cell line growth inhibition, 48 h

[
  {
    "compound": "COC(=O)c1ccccc1/C=C1\\Cc2cc(C)c(C)cc2C1=O",
    "cmp": ">",
    "TGI, µM": 100
  },
  {
    "compound": "C=CCN1C(=O)CS/C1=N/NC(=O)C(O)(c1ccccc1)c1ccccc1",
    "cmp": ">",
    "TGI, µM": 10
  },
  {
    "compound": "NC(=O)NC(=O)c1cccc(NC(=O)CBr)c1",
    "cmp": "=",
    "TGI, µM": 0.152
  },
  {
    "compound": "COC(=O)[C@@]12OC[C@]34C([C@@H](O)C1O)[C@@]1(C)CC(=O)C(OC(=O)/C=C(/c5ccccc5)C(F)(F)F)=C(C)C1C[C@H]3OC(=O)[C@H](O)[C@H]42 (stereo not given in full)",
    "cmp": "=",
    "TGI, µM": 19.4
  },
  {
    "compound": "COc1ccc2c(c1)CCC1=CC3(CCC12C)SCCS3 (stereo not given)",
    "cmp": ">",
    "TGI, µM": 10
  },
  {
    "compound": "COc1ccc(C(=O)/C=C/c2ccc(OCC(=O)N3CCN(c4ccccc4)CC3)cc2)cc1",
    "cmp": ">",
    "TGI, µM": 60.4
  },
  {
    "compound": "COc1cnc2c(c1)C(=O)c1c-2n(CCCN2CCCC2)c(=O)c2cc(F)ccc12",
    "cmp": "=",
    "TGI, µM": 1.26
  },
  {
    "compound": "C=CC[C@@H]1C(=O)[C@@]2(O[Si](C(C)C)(C(C)C)C(C)C)CC[C@@H]1C[C@H]2NC(=O)OCC(Cl)(Cl)Cl",
    "cmp": ">",
    "TGI, µM": 100
  },
  {
    "compound": "C=CCNC1=C2C[C@@H](C)C[C@@H](OC)[C@H](OC(=O)CN)[C@H](C)/C=C(\\C)[C@@H](OC(N)=O)[C@H](OC)/C=C\\C=C(/C)C(=O)NC(=CC1=O)C2=O",
    "cmp": ">",
    "TGI, µM": 40
  },
  {
    "compound": "CC(=O)[O][Hg][c]1ccccc1",
    "cmp": "=",
    "TGI, µM": 0.537
  }
]

====

Test system: M14 melanoma
Experiment: NCI tumour cell line growth inhibition, 48 h
// reported TGI per item
quantity-kind: TGI

[
  {
    "compound": "CCS(=O)(=O)CCn1cnc2c1c(=O)n(C)c(=O)n2C",
    "quantity-kind": "TGI",
    "measurement": "> 100 µM"
  },
  {
    "compound": "CCCCCCCC(=O)SCC/C=C/[C@@H]1CC(=O)NCc2nc(co2)C2=N[C@@](C)(CS2)C(=O)N[C@@H](C(C)C)C(=O)O1",
    "quantity-kind": "TGI",
    "measurement": "> 50 µM"
  },
  {
    "compound": "NC(=O)/C=C/NC(=O)/C=N\\O",
    "quantity-kind": "TGI",
    "measurement": "> 100 µM"
  },
  {
    "compound": "CCOC(=O)c1cnc(-n2[nH]c3c(c2=O)CCCC3)[nH]c1=O",
    "quantity-kind": "TGI",
    "measurement": "> 100 µM"
  },
  {
    "compound": "C=CCN1C(=O)CS/C1=N/NC(=O)C(O)(c1ccccc1)c1ccccc1",
    "quantity-kind": "TGI",
    "measurement": "> 10 µM"
  },
  {
    "compound": "O=C(Oc1ccccc1Cl)c1ccccc1Nc1ccnc(C(F)(F)F)c1",
    "quantity-kind": "TGI",
    "measurement": "0.913 µM"
  },
  {
    "compound": "O=C(Nc1ccccc1F)c1cc2ccc(O)cc2oc1=Nc1cccc(C(F)(F)F)c1",
    "quantity-kind": "TGI",
    "measurement": "26 µM"
  },
  {
    "compound": "O=C1/C(=C/c2ccccc2)CN(C(=O)OCc2ccccc2)C/C1=C\\c1ccccc1",
    "quantity-kind": "TGI",
    "measurement": "16.7 µM"
  },
  {
    "compound": "C=CC[C@@]1(C)CCCCCCCCC[C@@](C)(CC=C)C1=O",
    "quantity-kind": "TGI",
    "measurement": "> 100 µM"
  },
  {
    "compound": "O=c1[nH]n(Cc2ccccn2)c2ccc([N+](=O)[O-])cc12",
    "quantity-kind": "TGI",
    "measurement": "> 100 µM"
  },
  {
    "compound": "COc1cc2cc(C(=O)N3CC(CCl)c4ccccc43)[nH]c2c(OC)c1OC (centres undefined)",
    "quantity-kind": "TGI",
    "measurement": "> 100 µM"
  },
  {
    "compound": "COc1cc2c(cc1O)[C@@H]1Cc3c(cc(OC)c(OC)c3Oc3cc4c(cc3OC)CCN(C)[C@@H]4Cc3ccc(O)cc3)[C@H](C2)N1C",
    "quantity-kind": "TGI",
    "measurement": "33.9 µM"
  },
  {
    "compound": "CCCSC1=NC2C(N(CC)C(=O)N2CC)N1/N=C/C=C/c1ccccc1[N+](=O)[O-] (centres undefined)",
    "quantity-kind": "TGI",
    "measurement": "20.8 µM"
  },
  {
    "compound": "C=CC[C@@H]1C(=O)[C@@]2(O[Si](C(C)C)(C(C)C)C(C)C)CC[C@@H]1C[C@H]2NC(=O)OCC(Cl)(Cl)Cl",
    "quantity-kind": "TGI",
    "measurement": "> 100 µM"
  },
  {
    "compound": "Nc1nc(N)c2nc(CNc3ccc(C(=O)NC(CCCNC(=O)c4ccccc4C(=O)O)C(=O)O)cc3)cnc2n1 (centres undefined)",
    "quantity-kind": "TGI",
    "measurement": "> 100 µM"
  },
  {
    "compound": "CC(=O)Nc1ccc(C(=O)NN2C(=O)C(Cl)C2c2ccccc2O)cc1 (centres undefined)",
    "quantity-kind": "TGI",
    "measurement": "> 100 µM"
  },
  {
    "compound": "O=C(NC(Nc1ccc(F)c(Cl)c1)(C(F)(F)F)C(F)(F)F)OCc1ccccc1",
    "quantity-kind": "TGI",
    "measurement": "> 100 µM"
  },
  {
    "compound": "CCOC(=O)NC(=O)c1cn(CCN2CCN(C(=O)CCCCCCCCCCNc3ncnc4nc[nH]c34)CC2)c(=O)[nH]c1=O",
    "quantity-kind": "TGI",
    "measurement": "> 100 µM"
  },
  {
    "compound": "O=[N+]([O-])/C(C(Cl)=C(Cl)Cl)=C(/Sc1ccccc1)N1CCCCC1",
    "quantity-kind": "TGI",
    "measurement": "> 100 µM"
  }
]
